Just for reference, patent US9637491B2 is where these values come from.

// reported IC50 for each item listed
# target-desc: UniProtKB P43405

Example molecules with recorded IC50:
c1cncc(-c2nc(Nc3ccc(N4CCOCC4)nc3)c3[nH]ncc3n2)c1 [Example 126]
100 to 1000 nM
COCC(COC)n1cc(Nc2nc(-c3ccc4cn[nH]c4c3)nc3cn[nH]c23)cn1 [Example 448]
10 to 100 nM
OCCN1CCN(c2ccc(Nc3nc(-c4ccoc4)nc4cn[nH]c34)cc2)CC1 [Example 442]
10 to 100 nM

Q) Please tell me the measured IC50 for Fc1cc(Nc2nc(-c3ccon3)nc3cn[nH]c23)ccc1N1CCOCC1 [Example 75] ; system: UniProtKB P43405.
A) 100 to 1000 nM
